experimental-details: Intestinal stability, mouse intestinal S9
Format: in vitro ADME
reported-conditions: intestinal S9 fraction, pH 7.4, read-out: intrinsic clearance rate
# microsomal CLint at 1 µM per record follows
Just the number please, in µL/min/mg, no unit attached.

Task: # get_value(readout='microsomal CLint at 1 µM', item= O=c1c(-c2ccc(OCOP(=O)(O)O)cc2)coc2cc(O)cc(O)c12 )
Result: 46.7

Task: Try this molecule next: O=c1c(-c2ccc(O)cc2)coc2cc(OCOP(=O)(O)O)cc(O)c12
Result: 20.3

###

experimental-details: Approximate solubility in selected solvents by visual observation
Type: physicochemical
reported-conditions: thermodynamic from solid; water, 50° C., approximate, visual observation; read-out: solubility in water
property: solubility

Task: # get_value(readout='solubility', item= O=c1c(-c2ccc(O)cc2)coc2cc(OCOP(=O)(O)O)cc(O)c12 )
Result: ~5000 µg/mL

Just for reference, patent US20250170154A1 is where these values come from.
